These measurements were taken from patent US10654939.

experimental-system: T1, rhesus CD40 expressed on HEK293A cells (rhesus monkey, UniProt P25942 21-277 (human entry))
T1 construct: also called HEK293A/rhesusCD40
T1 chain: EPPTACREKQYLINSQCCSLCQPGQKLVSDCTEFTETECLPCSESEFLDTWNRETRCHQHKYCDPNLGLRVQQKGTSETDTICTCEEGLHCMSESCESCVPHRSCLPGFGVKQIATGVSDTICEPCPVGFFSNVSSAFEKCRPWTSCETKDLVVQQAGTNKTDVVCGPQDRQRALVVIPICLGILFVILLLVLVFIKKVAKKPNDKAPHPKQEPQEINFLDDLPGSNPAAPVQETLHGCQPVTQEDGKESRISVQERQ
method-notes: FACS on HEK293A/rhesus CD40 cells, serially diluted antibody (Example 14, protocol of Example 5)
recorded-endpoint: binding result

Reference set, count: 4
binder: 13A2-VH3VL3 (antibody, human IgG2, kappa, V domains shown, Humanized, human IgG2/kappa) VH: QVQLQESGPGLVKPSDTLSLTCAVSGYSITTNYYWNWIRQPPGNKLEWMGYINYDGSNNYNPSLKNRITISVDTSKNQFSLKLSSVTAVDTAVYYCARLDYWGQGTLVTVSS VL: DVVLTQSPLSLPVTLGQPASISCRSSQSLENSNGNTFLNWFQQRPGQSPRLLIYKVSNRFSGVPDRFSGSGSGTDFTLKISRVEAEDVGVYFCLQVTHVPFTFGSGTKLEIKR
binding result: binds

binder: 13A2-VH2VL3 (antibody, human IgG2, kappa, V domains shown, Humanized, human IgG2/kappa) VH: QVQLQESGPGLVKPSDTLSLTCAVSGYSITTNYYWNWIRQPPGKGLEWMGYINYDGSNNYNPSLKNRITISVDTSKNQFSLKLSSVTAVDTAVYYCARLDYWGQGTLVTVSS VL: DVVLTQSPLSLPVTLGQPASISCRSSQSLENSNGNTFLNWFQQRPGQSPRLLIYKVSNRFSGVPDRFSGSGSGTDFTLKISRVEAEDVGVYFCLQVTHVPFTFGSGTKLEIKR
binding result: binds

binder: 13A2-VH3VL2 (antibody, human IgG2, kappa, V domains shown, Humanized, human IgG2/kappa) VH: QVQLQESGPGLVKPSDTLSLTCAVSGYSITTNYYWNWIRQPPGNKLEWMGYINYDGSNNYNPSLKNRITISVDTSKNQFSLKLSSVTAVDTAVYYCARLDYWGQGTLVTVSS VL: DVVLTQSPLSLPVTLGQPASISCRSSQSLENSNGNTFLNWFQQRPGQSPRLLIYKVSNRFSGVPDRFSGSGSGTDFTLKISRVEAEDVGVYYCLQVTHVPFTFGQGTKLEIKR
binding result: binds

binder: 13A2-VH2VL2 (antibody, human IgG2, kappa, V domains shown, Humanized, human IgG2/kappa) VH: QVQLQESGPGLVKPSDTLSLTCAVSGYSITTNYYWNWIRQPPGKGLEWMGYINYDGSNNYNPSLKNRITISVDTSKNQFSLKLSSVTAVDTAVYYCARLDYWGQGTLVTVSS VL: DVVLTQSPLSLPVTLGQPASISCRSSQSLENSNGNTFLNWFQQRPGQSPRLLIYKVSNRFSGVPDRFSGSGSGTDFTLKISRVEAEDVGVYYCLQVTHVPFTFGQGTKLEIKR
binding result: binds

In plain terms, 13A2-VH0VL0 (antibody, human IgG2, kappa, V domains shown, Humanized, human IgG2/kappa) VH: QVQLQESGPGLVKPSDTLSLTCAVSGYSITTNYYWNWIRQPPGKGLEWIGYINYDGSNNYNPSLKNRVTMSVDTSKNQFSLKLSSVTAVDTAVYYCARLDYWGQGTLVTVSS VL: DVVMTQSPLSLPVTLGQPASISCRSSQSLENSNGNTFLNWFQQRPGQSPRRLIYKVSNRFSGVPDRFSGSGSGTDFTLKISRVEAEDVGVYYCLQVTHVPFTFGQGTKLEIKR has a documented binding result of binds
